Procedure details: Half life in human liver microsomes
Type: ADME, Microsome
Attribute measured: half-life (h)
The reply should contain only the number, in h.

Inquiry: Assign half-life to the following record: COC(=O)C(C)(C)C(c1ccc(Nc2ccc3ccccc3c2)cc1)n1ccnc1 (stereo unspecified)
Reply text: 5

---

Please respond with reported inhibition at 0.4 µM for every item in the list.
Measurement target: CYP3A4 (Homo sapiens, UniProt P08684)
Sequence (P08684 whole entry): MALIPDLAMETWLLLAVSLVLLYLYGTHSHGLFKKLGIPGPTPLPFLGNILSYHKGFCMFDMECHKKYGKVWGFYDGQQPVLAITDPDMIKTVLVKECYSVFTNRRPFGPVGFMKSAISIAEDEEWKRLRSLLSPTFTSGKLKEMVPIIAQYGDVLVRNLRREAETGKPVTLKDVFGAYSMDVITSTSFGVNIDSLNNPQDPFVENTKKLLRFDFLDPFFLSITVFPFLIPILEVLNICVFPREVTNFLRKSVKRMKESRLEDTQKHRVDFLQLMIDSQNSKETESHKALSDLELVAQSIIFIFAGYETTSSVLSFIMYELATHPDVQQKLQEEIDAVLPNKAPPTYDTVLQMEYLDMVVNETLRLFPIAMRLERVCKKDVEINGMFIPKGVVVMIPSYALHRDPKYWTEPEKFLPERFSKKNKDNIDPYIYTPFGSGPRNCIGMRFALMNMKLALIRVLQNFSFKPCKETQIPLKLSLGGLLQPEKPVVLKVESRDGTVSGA
Procedure details: Inhibition of CYP3A4 in human liver microsomes at 0.4 uM
Type: ADME, Microsome
# value in %; strip the unit string

Inquiry: State its inhibition at 0.4 µM: COC(=O)C(C)(C)C(c1ccc(Nc2nc3ccccc3s2)cc1)n1ccnc1 (centres undefined)
Reply text: 46

Inquiry: Using known records, supply inhibition at 0.4 µM for COC(=O)C(C)(C)C(c1ccc(Nc2nc3ccccc3o2)cc1)n1ccnc1 (centres undefined)
Reply text: 84

Inquiry: Return the recorded inhibition at 0.4 µM value; entry: COC(=O)C(C)(C)C(c1ccc(Nc2cccc3ccccc23)cc1)n1ccnc1 (centres undefined)
Reply text: 75

Inquiry: Please give measured inhibition at 0.4 µM of the following entry: COC(=O)C(C)(C)C(c1ccc(Nc2ccc3ccccc3c2)cc1)n1ccnc1 (centres undefined)
Reply text: 60
